Every entry's value here was drawn from paper PMC9789792.

Target: Fe(II) center in SadX
Measurement description: UV-vis titration of anion binding
Condition description: Blue-shifted Absorbance; SadX-His/Fe(II)/αKG, 100 mM HEPES pH 7.5
Documented Kd across a set of compounds
Readout kind: Kd (µM)

>>> df
            smiles_repr  readout_kind  numeric_readout
0         O=C[O-].[Na+]            Kd              530
1           [Cl-].[Na+]            Kd              600
2  [N-]=[N+]=[N-].[Na+]            Kd             2650
3            [Cs+].[F-]            Kd              460
